Assay: Half life in Swiss albino mouse
Assay type: ADME, organism-based
Conditions: in vivo
endpoint: half-life (h)
Report the value in h with no unit label.

Query: Could you tell me which half-life is on file for O=C1[C@H]2[C@@H](c3ccccc3)N(c3ccccc3)O[C@H]2C(=O)N1c1cccc2ccccc12 (relative stereo) ?
Reply: 3
